Experiment: protein stability index of a GFP-peptide fusion (GPS, HEK-293T) (PSI 1-6); higher = more stable;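 further: 24-mer peptide tiles fused after GFP, lentivirally expressed, FACS-sorted into six equal bins by GFP/DsRed ratio, decoded by Illumina sequencing, PSI is the read-weighted mean bin number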
Conditions: treatment: MLN4924 1 uM, 8 h; c terminus: a fixed tail appended
Classify on protein stability index using lower = under 3, middle = from 3 up to 4, upper = 4 and over

Asked: Field: class (protein stability index) — entry: GGDAGHAPFPPPPAADGARAPRSP [C6orf223]
Given back: upper

Asked: Field: class (protein stability index) — entry: KGTENLQRAQAEVLQSVRELSRSR [FCHSD1]
Given back: upper

Asked: Field: class (protein stability index) — entry: DIAAGEELLYDYGDRSKASIEAHP [KMT5A]
Given back: upper

Asked: Field: class (protein stability index) — entry: MRSGEPACTMDQARGLDDAAARGG [ZBED3]
Given back: upper

Asked: Field: class (protein stability index) — entry: HVAVEHQLPPASRCVLVFEQVRFL [SOAT2]
Given back: lower

====

Assay: protein stability index of a GFP-peptide fusion (GPS, HEK-293T) (PSI 1-6); higher = more stable
Details: treatment: MLN4924 1 uM, 8 h; c terminus: a fixed tail appended
readout: protein stability index
Keep the answer to the number alone.

# annotated cases, reported protein stability index shown
The measured protein stability index associated with KLKGAEVTYMNMTAYNKGRLQSSF [PLD5] reads 2.72

The measured protein stability index associated with RNTLNQPCSGSVSLQPRRSIAFRL [GMCL1] reads 2.36

The measured protein stability index associated with LCGQAAGAASLPSELIVHIFSFLP [FBXO33] reads 2.29

The measured protein stability index associated with PPSNFLEIDIFNPQTVGVGRARFT [SNX12] reads 3.27

New cases:
The measured protein stability index associated with TRTTSFKGTSPSSKYVKLNVGGAL [KCTD10] reads 2.87

The measured protein stability index associated with AGRLMRPSVKYLSHPRVQSGCDKE [RNF180] reads 4.11

The measured protein stability index associated with GSARSHASSRASENQSPSSSNYFS [ZBTB22] reads 4.74

The measured protein stability index associated with DMAGKIKLWDLRTTKCVRQYEGHV [DCAF4] reads 2.68

The measured protein stability index associated with RPAQAIGTQPRATKHKCRQLTKAS [SPACA9] reads 4.44

====

Assay: protein stability index of a GFP-peptide fusion (GPS, HEK-293T) (PSI 1-6); higher = more stable
Conditions: treatment: MLN4924 1 uM, 8 h; c terminus: a fixed tail appended
protein stability index of 4 or higher: Criterion met. Under 4: Criterion not met.

Asked: Record INYCALNKPGCEHECVNMEESYYC [MATN2] ; criterion: protein stability index no lower than 4. Met?
Given back: Criterion not met

Attention now shifts to the item below.
Asked: Record CVLVPRADLRLGGQPAPPQLLLGR [SMAD6] ; criterion: protein stability index no lower than 4. Met?
Given back: Criterion not met

====

Assay: protein stability index of a GFP-peptide fusion (GPS, HEK-293T) (PSI 1-6); higher = more stable
Details: treatment: DMSO; c terminus: a fixed tail appended
protein stability index of 3 or higher: true (1). Under 3: false (0).

Asked: Record EYDTVTREVKVLLDQLRFPNGVQL [APMAP] ; criterion: protein stability index no lower than 3. Met?
Given back: false (0)

Asked: Record PFGILSPNVLCSMSGKSPVESSLN [FBXO34] ; criterion: protein stability index no lower than 3. Met?
Given back: false (0)

Asked: Record CHECGKKFSQNSHLIKHRRTHTGE [ZNF75A] ; criterion: protein stability index no lower than 3. Met?
Given back: true (1)

Asked: Record VVLCFSIANPNSLHHVKTMWYPEI [RHOBTB2] ; criterion: protein stability index no lower than 3. Met?
Given back: true (1)

Asked: Record QSFIIPLERYVASLMPLQKSISPW [DENND6A] ; criterion: protein stability index no lower than 3. Met?
Given back: false (0)

New cases:
Asked: Record TPAPPLWIGLFLVATGSQQSLAQP ; criterion: protein stability index no lower than 3. Met?
Given back: false (0)

Asked: Record VSAQRERPRRRDGPEHATRLNGTA [DVL3] ; criterion: protein stability index no lower than 3. Met?
Given back: true (1)

All values here come from the supplement of paper PMC10567573.
